- system under test: Burkholderia cenocepacia purified FtsZ protein (Burkholderia cenocepacia)
- run description: biochemical
- Format: biochemical
- settings: 100 μM compound; Yes/No
endpoint name: Inhibition of Bc FtsZ At 100 μM

compound: COC(=O)C(C)Sc1ccc2nsnc2c1[N+](=O)[O-] (centres unmarked)
Inhibition of Bc FtsZ At 100 μM: Yes
--
compound: O=C1CSc2ccc3nsnc3c2N1
Inhibition of Bc FtsZ At 100 μM: No
--
compound: O=[N+]([O-])c1c(SC(=S)N2CCSCC2)ccc2nsnc12
Inhibition of Bc FtsZ At 100 μM: Yes
--
compound: O=[N+]([O-])c1c(N=C=S)ccc2nsnc12
Inhibition of Bc FtsZ At 100 μM: Yes

IN: Value lookup for Inhibition of Bc FtsZ At 100 μM; key = CCOC(=O)C(C)Sc1ccc2nsnc2c1[N+](=O)[O-] (centres unmarked)
OUT: No

IN: # get_value(readout='Inhibition of Bc FtsZ At 100 μM', item= CCOc1cc(SC#N)c2nsnc2c1[N+](=O)[O-] )
OUT: Yes

IN: Need Inhibition of Bc FtsZ At 100 μM, item COC(=O)CSc1c(C)cc2nsnc2c1[N+](=O)[O-]
OUT: Yes

IN: Give the measured Inhibition of Bc FtsZ At 100 μM of COC(=O)CSc1ccc2nsnc2c1[N+](=O)[O-] .
OUT: Yes

----------
- System: E. coli ATCC 25922
- run description: MIC, 2-fold microdilution, resazurin method
- Assay type: cell-based
- settings: Escherichia coli, ATCC25922; Supplementary Table 1; read-out: MIC (µg/ml) E. coli 25922
endpoint name: MIC (µg/mL)
Numbers only; they are read as µg/mL.

# annotated cases, reported MIC shown
molecule: COC(=O)CS(=O)(=O)c1ccc2nsnc2c1[N+](=O)[O-]
system under test: E. coli ATCC 25922
MIC, µg/mL: 128

molecule: CCOC(=O)CSc1ccc2nsnc2c1[N+](=O)[O-]
system under test: E. coli ATCC 25922
MIC, µg/mL: 8

molecule: O=[N+]([O-])c1c(Sc2ncc[nH]2)ccc2nsnc12
system under test: E. coli ATCC 25922
MIC, µg/mL: 128

IN: Fill in: MIC of COC(=O)C(C)Sc1ccc2nsnc2c1[N+](=O)[O-] (stereo not drawn) is ___
OUT: 16

----------
- system under test: Burkholderia cenocepacia purified FtsZ protein (Burkholderia cenocepacia)
- run description: biochemical
- Assay type: biochemical
- settings: 100 µM; Yes/No; Supplementary Table 1
endpoint name: Inhibits B. cenocepacia FtsZ GTPase at 100µM?

Past entries and their recorded results:
molecule: COC(=O)C[S+]([O-])c1ccc2nsnc2c1[N+](=O)[O-] (centres unmarked)
system under test: Burkholderia cenocepacia purified FtsZ protein (Burkholderia cenocepacia)
reported measurement: Yes

molecule: CCOC(=O)CNc1ccc2nsnc2c1[N+](=O)[O-]
system under test: Burkholderia cenocepacia purified FtsZ protein (Burkholderia cenocepacia)
reported measurement: No

molecule: CCOC(=O)CSc1ccc2nsnc2c1[N+](=O)[O-]
system under test: Burkholderia cenocepacia purified FtsZ protein (Burkholderia cenocepacia)
reported measurement: Yes

molecule: CCOC(=O)CSc1c(C)cc2nsnc2c1[N+](=O)[O-]
system under test: Burkholderia cenocepacia purified FtsZ protein (Burkholderia cenocepacia)
reported measurement: Yes

Field: next molecule
IN: Need Inhibits B. cenocepacia FtsZ GTPase at 100µM? of O=C(O)CSc1ccc2nsnc2c1[N+](=O)[O-] , thanks.
OUT: No

----------
- system under test: Burkholderia cenocepacia purified FtsZ protein (Burkholderia cenocepacia, UniProt B4E5Y7)
- Sequence (B4E5Y7 entry or part of it): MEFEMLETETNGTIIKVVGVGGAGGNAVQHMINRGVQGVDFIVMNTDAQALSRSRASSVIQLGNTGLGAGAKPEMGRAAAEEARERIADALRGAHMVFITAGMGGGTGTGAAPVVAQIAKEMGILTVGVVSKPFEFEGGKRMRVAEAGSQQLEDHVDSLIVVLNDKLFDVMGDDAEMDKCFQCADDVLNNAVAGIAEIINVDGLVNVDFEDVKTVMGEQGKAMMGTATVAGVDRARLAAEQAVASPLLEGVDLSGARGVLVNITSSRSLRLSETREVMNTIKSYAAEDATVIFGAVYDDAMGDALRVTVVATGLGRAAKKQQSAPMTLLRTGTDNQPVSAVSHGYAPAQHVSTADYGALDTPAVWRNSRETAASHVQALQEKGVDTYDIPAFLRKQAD
- run description: biochemical
- Assay type: biochemical
- settings: 100 μM compound; Yes/No
endpoint name: Inhibition of Bc FtsZ At 100 μM

Illustrative cases are given below, each with its answer.
compound: CN(C)C(=S)Sc1ccc2nsnc2c1[N+](=O)[O-] [compound 10126130]
Inhibition of Bc FtsZ At 100 μM: Yes

compound: COC(=O)C[S+]([O-])c1ccc2nsnc2c1[N+](=O)[O-] (stereo not drawn) [compound 11726257]
Inhibition of Bc FtsZ At 100 μM: Yes

compound: O=C(O)CSc1ccc2nsnc2c1[N+](=O)[O-] [compound 11426177]
Inhibition of Bc FtsZ At 100 μM: No

compound: COc1cc(SC#N)c2nsnc2c1[N+](=O)[O-] [compound 11126009]
Inhibition of Bc FtsZ At 100 μM: Yes

compound: CC(C)Oc1cc(SC#N)c2nsnc2c1[N+](=O)[O-] [compound 11126010]
Inhibition of Bc FtsZ At 100 μM: Yes

IN: Given N#CSc1cc(-c2ccc([N+](=O)[O-])cc2)c2nsnc2c1[N+](=O)[O-] [compound 11026176] , state its recorded Inhibition of Bc FtsZ At 100 μM.
OUT: Yes

----------
- Test system: E. coli ATCC 25922
- run description: MIC, 2-fold microdilution, resazurin method
- Format: cell-based
- settings: Escherichia coli, ATCC25922; Supplementary Table 1; read-out: MIC (µg/ml) E. coli 25922
- Protocol: Burkholderia cenocepacia strains, Escherichia coli ATCC 25922, Pseudomonas aeruginosa PAO1, and Staphylococcus aureus ATCC 25923 were grown in Luria-Bertani (LB) medium (Difco), if not differently specified, with shaking at 200 rpm, or on LB agar, at 37°C. The microtiter plates were incubated at 37°C for 48 (for B. cenocepacia) or 24 h (for all the other strains) and growth was determined by the resazurin method (Martin et al., [2006]). […]
endpoint name: MIC

Some molecules with known MIC results, for comparison:
molecule: COC(=O)CSc1c(C)cc2nsnc2c1[N+](=O)[O-] [compound 11926141]
endpoint name: MIC
reported measurement: > 256 µg/mL
--
molecule: CCOC(=O)CCSc1ccc2nsnc2c1[N+](=O)[O-] [compound 10226047]
endpoint name: MIC
reported measurement: > 512 µg/mL
--
molecule: O=[N+]([O-])c1c(SC(=S)N2CCSCC2)ccc2nsnc12 [compound 11126015]
endpoint name: MIC
reported measurement: > 512 µg/mL
--
molecule: CCOc1cc(SC#N)c2nsnc2c1[N+](=O)[O-] [compound 11026177]
endpoint name: MIC
reported measurement: > 512 µg/mL

Then this molecule:
IN: # lookup: MIC of CCOC(=O)CNc1ccc2nsnc2c1[N+](=O)[O-] [compound 11726042]
OUT: > 512 µg/mL
